Listed below: Threshold of tumor cell numbers for HPV-16 detection values for each entry.
System: HPV-16
Test Description: qPCR sensitivity against HPV-HNSCC tumor samples diluted among 10 ng normal human DNA
Assay Context: Sample # 29
Only the number, expressed in tumor cells, is required.

Recorded Threshold of tumor cell numbers for HPV-16 detection, per entry:
Molecule	Data Value
E6: previously designed (historical) HPV-16 E6 primers and Taqman probe, SEQ ID NO: 7-9, positive control (nucleic acid, Taqman probe, labels not given here) DNA 1: TCAGGACCCACAGGAGCG DNA 2: CCTCACGTCGCAGTAACTGTTG DNA 3: CCCAGAAAGTTACCACAGTTATGCACAGAGCT	3.0
BR E1-5: HPV-16 E1 region primer/probe set, SEQ ID NO: 40-42 (same as SEQ ID NO: 1-3) (nucleic acid, chemistry not given here) DNA 1: GCACAATTGGCAGACACTAAT DNA 2: GCACAATCCTTTACAATTTTTGCC DNA 3: AGTAATGCAAGTGCCTTTCTAAAAAGTAATTC	1.0
BR E1-4: HPV-16 E1 region primer/probe set, SEQ ID NO: 37-39 (nucleic acid, chemistry not given here) DNA 1: ATGCACAATTGGCAGACACTA DNA 2: ACAATCCTTTACAATTTTTGCCTGT DNA 3: TAATGCAAGTGCCTTTCTAAAAAGT	1.0
BR E1-6: HPV-16 E1 region primer/probe set, SEQ ID NO: 43-45 (nucleic acid, chemistry not given here) DNA 1: ATGCACAATTGGCAGACACTAA DNA 2: AATCCTTTACAATTTTTGCCTGTGA DNA 3: AGTAATGCAAGTGCCTTTCTAAAAAGTA	3.0

Query molecule follows.
Query: Tell me the measured Threshold of tumor cell numbers for HPV-16 detection of BR E6-1: HPV-16 E6 region (172-373 bp) primer/probe set, SEQ ID NO: 58-60 (nucleic acid, chemistry not given here) DNA 1: CAGTTACTGCGACGTGAGGT DNA 2: ACAGCATATGGATTCCCATCTC DNA 3: ACTTTGCTTTTCGGGATTTATGCATAGTA , please.
Response: 1.0

Reference source for all entries: patent US20200399712A1
